# System: TNF-α
# procedure-details: LPS-induced TNF-α release from hPBMCs (ELISA)
# Assay type: cell-based
# measurement-conditions: Homo sapiens; LPS-stimulated hPBMCs, 5 hours; read-out: Activity (TNF-α) IC50
Counter-ions that a name gives are not always drawn.
This section presents compounds with their documented pIC50 values.
Just the number, please; pIC50 means minus log10 of the concentration in mol/L.

Previously resolved entries follow.
compound="CN1CC[C@@H](c2c(O)cc(O)c3c(=O)cc(-c4cccc([N+](=O)[O-])c4)oc23)[C@@H]1CO [Compound of example 26, hydrochloride]" recorded_number=6.40
compound="CN1CC[C@@H](c2c(O)cc(O)c3c(=O)cc(-c4cccs4)oc23)[C@@H]1CO [Compound of example 22, hydrochloride]" recorded_number=5.64
compound="CN1CC[C@@H](c2c(O)cc(O)c3c(=O)cc(-c4cccc(Cl)c4Cl)oc23)[C@@H]1CO [Compound of example 58, hydrochloride]" recorded_number=5.82
compound="CN1CC[C@@H](c2c(O)cc(O)c3c(=O)cc(-c4cccc([N+](=O)[O-])c4Cl)oc23)[C@@H]1CO [Compound of example 38, hydrochloride]" recorded_number=5.89

[ask] I am curious: what pIC50 value has been reported for CN1CC[C@@H](c2c(O)cc(O)c3c(=O)cc(-c4ccc([N+](=O)[O-])cc4Cl)oc23)[C@@H]1CO [Compound of example 5, hydrochloride] ?
[reply] 6.40

---

This section presents compounds with their documented IC50 values.
# Tested on: TNF-α
# procedure-details: LPS-induced TNF-α release from hPBMCs (ELISA)
# Type: cell-based
# measurement-conditions: Homo sapiens; LPS-stimulated hPBMCs, 5 hours; read-out: Activity (TNF-α) IC50
Counter-ions that a name gives are not always drawn.
Provide only the numeric value, understood in nM.

compound="CN1CC[C@@H](c2c(O)cc(O)c3c(=O)cc(-c4cccc(C(F)(F)F)c4Cl)oc23)[C@@H]1CO [Compound of example 42, hydrochloride]" units_symbol=nM recorded_number=2400
compound="CC(C)Nc1cccc(-c2cc(=O)c3c(O)cc(O)c([C@@H]4CCN(C)[C@H]4CO)c3o2)c1Cl [Compound of example 66, hydrochloride]" units_symbol=nM recorded_number=900
compound="CN1CC[C@@H](c2c(O)cc(O)c3c(=O)cc(-c4cc(F)ccc4Cl)oc23)[C@@H]1CO [Compound of example 20, hydrochloride]" units_symbol=nM recorded_number=700

[ask] I am curious: what IC50 value has been reported for CN1CC[C@@H](c2c(O)cc(O)c3c(=O)cc(-c4ccc(C#N)cc4Cl)oc23)[C@@H]1CO [Compound of example 12, hydrochloride] ?
[reply] 1500

[ask] One more compound: CN1CC[C@@H](c2c(O)cc(O)c3c(=O)cc(-c4cccc(Br)c4Cl)oc23)[C@@H]1CO [Compound of example 30, hydrochloride]
[reply] 4100

[ask] One more compound: CN1CC[C@@H](c2c(O)cc(O)c3c(=O)cc(-c4cc(F)ccc4Br)oc23)[C@@H]1CO [Compound of example 9, hydrochloride]
[reply] 900

---

# Test system: TNF-α
# procedure-details: LPS-induced TNF-α release from hPBMCs (ELISA)
# Format: cell-based
# measurement-conditions: Homo sapiens; LPS-stimulated hPBMCs, 5 hours; read-out: Activity (TNF-α) IC50
Counter-ions that a name gives are not always drawn.
Mark label 1 only for IC50 values smaller than 300 nM; exact matches and larger values are label 0.

Completed entries (count: 3):
compound="CN1CC[C@@H](c2c(O)cc(O)c3c(=O)cc(-c4ccc(C(F)(F)F)cc4Cl)oc23)[C@@H]1CO.Cl [Compound of example 3, hydrochloride]" assigned_label="label 0"
compound="CN1CC[C@@H](c2c(O)cc(O)c3c(=O)cc(-c4cccc(I)c4Cl)oc23)[C@@H]1CO [Compound of example 62, hydrochloride]" assigned_label="label 0"
compound="Cc1cccc(-c2cc(=O)c3c(O)cc(O)c([C@@H]4CCN(C)[C@H]4CO)c3o2)c1Cl [Compound of example 46, hydrochloride]" assigned_label="label 0"

[ask] For CN1CC[C@@H](c2c(O)cc(O)c3c(=O)cc(-c4cccc(Cl)c4)oc23)[C@@H]1CO [Compound of example 34, hydrochloride] , is the recorded IC50 below the cut-off of 300 nM?
[reply] label 0

[ask] One more compound: CN1CC[C@@H](c2c(O)cc(O)c3c(=O)cc(-c4ccccc4Cl)oc23)[C@@H]1CO [Compound of example 7, hydrochloride]
[reply] label 1
